System: Escherichia coli TOP10;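 note: peptides expressed intracellularly from a pBAD plasmid library in pooled LB shake-flask culture, induced with 0.3% L-arabinose, DNA abundance read by NGS, three biological replicates, DESeq2 with apeglm shrinkage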
Assay: shrunken log2 fold change of peptide-encoding DNA abundance (4.5 h post-induction vs induction); higher = less antimicrobial activity (less host growth inhibition)
Conditions: time post-induction: 4.5 h; library: site-saturation at positions 5, 18, 19, 20
Outcome measure: shrunken log2 fold change
Answers are plain numbers.

Worked examples, 3 sequences total:
RRIRCRPPRLPRPRPRPNWRPRP :: 0.437
RRIRQRPPRLPRPRPRPITIPRP :: -0.239
RRIRARPPRLPRPRPRPSTNPRP :: 0.0112

Report shrunken log2 fold change for every entry below.
1. RRIRWRPPRLPRPRPRPHAYPRP
2. RRIRSRPPRLPRPRPRPLKIPRP
3. RRIRLRPPRLPRPRPRPAPQPRP
4. RRIRWRPPRLPRPRPRPIYDPRP
5. RRIRPRPPRLPRPRPRPCEVPRP
6. RRIRHRPPRLPRPRPRPRSRPRP

Reply:
-0.349
-0.309
0.609
-0.227
0.00799
-0.132
